This collection of values is drawn from patent US20230002389A1.

assay-procedure: Pharmacokinetic analysis of T1-1 as a prodrug of MRS5474: plasma PK in mice after i.v. and p.o. dosing
Type: in vivo, Male CD-1 mice
experimental-context: male, mouse; IV(plasma), T1-1 dosed 1.35 mg/kg, CD-1 mice; analyte = label
endpoint-label: Tmax

# compound, endpoint-label, reading
rows = [
    ("O[C@@H]1[C@H](O)[C@@H]2C[C@@H]2[C@H]1n1cnc2c(NC(C3CC3)C3CC3)nc(Cl)nc21 [MRS5474, reference compound]", "Tmax", "1 h"),
]
